Test Summary: Cytotoxicity against HEK293 cells assessed as inhibition of cell growth measured after 48 hrs by MTT assay
Format: toxicity, cell-based
Cond: human
Measured Metric: IC50 at 48 h (µM)
Number only, in µM; omit the unit.

Record CC1(C)OC(=O)C(=Cc2cn(Cc3cn(-c4ccc(Cl)cc4)nn3)c3ncccc23)C(=O)O1 , field IC50 at 48 h: 97.3

Record CC1(C)OC(=O)C(=Cc2cn(Cc3cn(-c4ccc(Br)cc4)nn3)c3ncccc23)C(=O)O1 , field IC50 at 48 h: 93.9

---

Test Summary: Cytotoxicity against HEK293 cells assessed as inhibition of cell growth measured after 48 hrs by MTT assay
Assay type: toxicity, cell-based
Cond: human
Measured Metric: IC50 at 48 h

Record CC1(C)OC(=O)C(=Cc2cn(Cc3cn(-c4ccc(I)cc4)nn3)c3ncccc23)C(=O)O1 , field IC50 at 48 h: > 100 µM

Record CC1(C)OC(=O)C(=Cc2cn(Cc3cn(-c4ccccc4Cl)nn3)c3ncccc23)C(=O)O1 , field IC50 at 48 h: > 100 µM

Record CC1(C)OC(=O)C(=Cc2cn(Cc3cn(-c4cccc(Cl)c4)nn3)c3ncccc23)C(=O)O1 , field IC50 at 48 h: > 100 µM

Record CC1(C)OC(=O)C(=Cc2cn(Cc3cn(-c4ccc(Br)cc4F)nn3)c3ncccc23)C(=O)O1 , field IC50 at 48 h: 90.8 µM

Record CC1(C)OC(=O)C(=Cc2cn(Cc3cn(-c4ccccc4)nn3)c3ncccc23)C(=O)O1 , field IC50 at 48 h: > 100 µM

Record Cc1ccc(-n2cc(Cn3cc(C=C4C(=O)OC(C)(C)OC4=O)c4cccnc43)nn2)cc1 , field IC50 at 48 h: > 100 µM

Record COc1ccc(-n2cc(Cn3cc(C=C4C(=O)OC(C)(C)OC4=O)c4cccnc43)nn2)cc1 , field IC50 at 48 h: 99.7 µM

Record COc1cc(-n2cc(Cn3cc(C=C4C(=O)OC(C)(C)OC4=O)c4cccnc43)nn2)cc(OC)c1OC , field IC50 at 48 h: 76.6 µM

Record CC1(C)OC(=O)C(=Cc2cn(Cc3cn(-c4cc(Cl)cc(Cl)c4)nn3)c3ncccc23)C(=O)O1 , field IC50 at 48 h: > 100 µM

Record COc1cc(OC)cc(-n2cc(Cn3cc(C=C4C(=O)OC(C)(C)OC4=O)c4cccnc43)nn2)c1 , field IC50 at 48 h: 81.7 µM

Record CC1(C)OC(=O)C(=Cc2cn(Cc3cn(-c4ccc(Cl)c(Cl)c4)nn3)c3ncccc23)C(=O)O1 , field IC50 at 48 h: > 100 µM

From: ChEMBL document CHEMBL5634208
